# experimental.target: Recombinant human PI3Kγ (full length human PI3K p110γ) (Homo sapiens, UniProt P48736)
# Construct: full length human PI3K p110γ fused with a His6-tag at the C-terminus; His6 (C); purchased ALEXIS BIOCHEMICALS #201-055-C010; host or cells: S. frugiperda 9 insect cells
# Sequence (P48736 whole entry, the tested form may be a part): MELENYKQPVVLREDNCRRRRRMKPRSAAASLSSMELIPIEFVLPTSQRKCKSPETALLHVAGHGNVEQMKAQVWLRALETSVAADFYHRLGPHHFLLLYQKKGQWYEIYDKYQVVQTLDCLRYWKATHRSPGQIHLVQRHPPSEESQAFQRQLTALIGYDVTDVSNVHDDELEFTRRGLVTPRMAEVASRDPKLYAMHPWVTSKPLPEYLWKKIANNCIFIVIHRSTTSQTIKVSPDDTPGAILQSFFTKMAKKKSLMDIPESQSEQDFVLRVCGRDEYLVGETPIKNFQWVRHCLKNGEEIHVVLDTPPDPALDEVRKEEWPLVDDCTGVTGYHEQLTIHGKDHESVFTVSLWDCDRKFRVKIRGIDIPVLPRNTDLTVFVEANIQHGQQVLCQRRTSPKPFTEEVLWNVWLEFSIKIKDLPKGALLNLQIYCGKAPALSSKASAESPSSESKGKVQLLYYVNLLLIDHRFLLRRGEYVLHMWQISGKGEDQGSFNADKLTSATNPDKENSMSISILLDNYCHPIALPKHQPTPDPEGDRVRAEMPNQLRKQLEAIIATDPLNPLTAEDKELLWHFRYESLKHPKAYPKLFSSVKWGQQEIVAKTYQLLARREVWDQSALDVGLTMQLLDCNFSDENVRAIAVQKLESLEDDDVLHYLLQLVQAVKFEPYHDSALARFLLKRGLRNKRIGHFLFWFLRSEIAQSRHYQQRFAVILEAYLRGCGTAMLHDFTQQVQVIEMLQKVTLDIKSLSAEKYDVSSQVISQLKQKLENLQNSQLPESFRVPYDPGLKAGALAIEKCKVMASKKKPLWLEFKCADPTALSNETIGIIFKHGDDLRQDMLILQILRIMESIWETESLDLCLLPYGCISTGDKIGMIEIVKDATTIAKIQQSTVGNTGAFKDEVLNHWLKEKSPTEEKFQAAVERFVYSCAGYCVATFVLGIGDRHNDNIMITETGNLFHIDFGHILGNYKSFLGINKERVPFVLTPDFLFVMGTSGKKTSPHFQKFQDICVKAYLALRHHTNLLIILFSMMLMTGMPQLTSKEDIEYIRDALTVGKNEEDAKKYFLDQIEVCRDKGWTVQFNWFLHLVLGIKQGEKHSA
# experiment.summary: Kinase assay of PI3Kγ (solid-phase lipid kinase assay)
# Assay type: biochemical
# condition.description: in vitro PI3K-γ inhibitory activity, class symbols; read-out: in vitro PI3K-gamma
# key: entry, value: IC50

Known IC50 results, listed for orientation:
structure_notation=Cl.O=C(NC1=Nc2ccccc2C2=NCCN12)c1ccc(Cl)nc1 readout_kind=IC50 reported="100 to 500 nM"
structure_notation=Nc1cncc(C(=O)NC2=Nc3ccccc3C3=NCCN23)c1.O=C(O)C(F)(F)F readout_kind=IC50 reported="100 to 500 nM"
structure_notation=Cc1ncccc1C(=O)NC1=Nc2cc(N3CCOCC3)ccc2C2=NCCN12 readout_kind=IC50 reported="100 to 500 nM"
structure_notation=COc1ccc2c(c1)C1=NCCN1C(NC(=O)c1cccnc1)=N2.Cl readout_kind=IC50 reported="100 to 500 nM"
structure_notation=O=C(NC1=Nc2ccccc2C2=NCCN12)c1ccoc1 readout_kind=IC50 reported="100 to 500 nM"
structure_notation=Cc1ccc2c(c1)C1=NCCN1C(NC(=O)c1ccc3[nH]cnc3c1)=N2.Cl readout_kind=IC50 reported="< 100 nM"

Query COc1cccc2c1N=C(NC(=O)c1cccnc1C)N1CCN=C21.Cl yields IC50 of < 100 nM

Documented IC50 of COc1cccc2c1N=C(NC(=O)c1cccnc1)N1CCN=C21 : < 100 nM

IC50 recorded for this molecule, COc1cc2c(cc1OC)C1=NCCN1C(NC(=O)c1cccnc1)=N2 , is 100 to 500 nM

* * *

# experimental.target: Recombinant human PI3Kγ (full length human PI3K p110γ) (Homo sapiens)
# Construct: full length human PI3K p110γ fused with a His6-tag at the C-terminus; His6 (C); purchased ALEXIS BIOCHEMICALS #201-055-C010; host or cells: S. frugiperda 9 insect cells
# experiment.summary: Kinase assay of PI3Kγ (solid-phase lipid kinase assay)
# Format: biochemical
# condition.description: in vitro PI3K-γ inhibitory activity, class symbols A-D; read-out: in vitro PI3K-gamma
Reported IC50 by item:

# count of solved cases: 5
compound=COc1ccc(C(=O)NC2=Nc3ccccc3C3=NCCN23)cc1 experimental_target="Recombinant human PI3Kγ (full length human PI3K p110γ) (Homo sapiens)" readout_kind=IC50 reported="> 2000 nM"
compound=O=C(NC1=Nc2cc(OCC(=O)N3CCOCC3)ccc2C2=NCCN12)c1cccnc1 experimental_target="Recombinant human PI3Kγ (full length human PI3K p110γ) (Homo sapiens)" readout_kind=IC50 reported="100 to 500 nM"
compound=O=C(NC1=Nc2ccccc2C2=NCCN12)c1ccncc1 experimental_target="Recombinant human PI3Kγ (full length human PI3K p110γ) (Homo sapiens)" readout_kind=IC50 reported="500 to 2000 nM"
compound=Cl.O=C(NC1=Nc2ccccc2C2=NCCN12)c1ccco1 experimental_target="Recombinant human PI3Kγ (full length human PI3K p110γ) (Homo sapiens)" readout_kind=IC50 reported="500 to 2000 nM"
compound=CSc1ncccc1C(=O)NC1=Nc2ccccc2C2=NCCN12 experimental_target="Recombinant human PI3Kγ (full length human PI3K p110γ) (Homo sapiens)" readout_kind=IC50 reported="> 2000 nM"

Record Cl.O=C1NCC(COc2ccc3c(c2)N=C(NC(=O)c2cccnc2)N2CCN=C32)O1 (stereo not drawn) / Recombinant human PI3Kγ (full length human PI3K p110γ) (Homo sapiens), IC50 recorded as 100 to 500 nM

// assay Recombinant human PI3Kγ (full length human PI3K p110γ) (Homo sapiens), entry C[C@H]1CN2C(NC(=O)c3cccnc3)=Nc3ccccc3C2=N1.Cl , IC50 value = > 2000 nM

Entry Cn1cc(C(=O)NC2=Nc3ccccc3C3=NCCN23)c2ccccc21 under Recombinant human PI3Kγ (full length human PI3K p110γ) (Homo sapiens) had IC50 of > 2000 nM

Item O=C(NC1=Nc2ccccc2C2=NCCN12)c1ccc([N+](=O)[O-])s1 ; assay system Recombinant human PI3Kγ (full length human PI3K p110γ) (Homo sapiens); IC50 reported as > 2000 nM

Per the reported Recombinant human PI3Kγ (full length human PI3K p110γ) (Homo sapiens) data, NS(=O)(=O)c1ccc(C(=O)NC2=Nc3ccccc3C3=NCCN23)c(Cl)c1 has IC50 of > 2000 nM

For O=C(Cc1cccs1)NC1=Nc2ccccc2C2=NCCN12 on Recombinant human PI3Kγ (full length human PI3K p110γ) (Homo sapiens), measured IC50 was > 2000 nM

Field IC50 (system: Recombinant human PI3Kγ (full length human PI3K p110γ) (Homo sapiens)) for entry Cc1nc2cc(C(=O)NC3=Nc4ccccc4C4=NCCN34)ccc2[nH]1.Cl = 100 to 500 nM

Tested system Recombinant human PI3Kγ (full length human PI3K p110γ) (Homo sapiens); IC50 recorded for C[C@@H]1CN=C2c3ccccc3N=C(NC(=O)c3cccnc3)N21.Cl was > 2000 nM

IC50 for Recombinant human PI3Kγ (full length human PI3K p110γ) (Homo sapiens) with input Cl.O=C(NC1=Nc2cc(OCCN3CCOCC3)ccc2C2=NCCN12)c1cccnc1 equals 100 to 500 nM

Per the reported Recombinant human PI3Kγ (full length human PI3K p110γ) (Homo sapiens) data, COc1cc(C(=O)NC2=Nc3ccccc3C3=NCCN23)cc(OC)c1C has IC50 of > 2000 nM

O=C(NC1=Nc2ccccc2C2=NCCN12)c1ccco1 on Recombinant human PI3Kγ (full length human PI3K p110γ) (Homo sapiens) gives IC50 = 500 to 2000 nM

Record O=C(NC1=Nc2ccccc2C2=NCCN12)c1ccccc1Cl.O=C(O)C(F)(F)F / Recombinant human PI3Kγ (full length human PI3K p110γ) (Homo sapiens), IC50 recorded as > 2000 nM

IC50 on Recombinant human PI3Kγ (full length human PI3K p110γ) (Homo sapiens) for COc1ncccc1C(=O)NC1=Nc2ccccc2C2=NCCN12 is 500 to 2000 nM

* * *

# experimental.target: Recombinant human PI3Kγ (full length human PI3K p110γ) (Homo sapiens)
# Construct: full length human PI3K p110γ fused with a His6-tag at the C-terminus; His6 (C); purchased ALEXIS BIOCHEMICALS #201-055-C010; host or cells: S. frugiperda 9 insect cells
# experiment.summary: Kinase assay of PI3Kγ (solid-phase lipid kinase assay)
# Assay type: biochemical
# condition.description: in vitro PI3K-γ inhibitory activity, class symbols A-D; read-out: in vitro PI3K-gamma
pIC50: −log10 of the molar value.
Let's look at some compounds and their measured pIC50.

Example results:
structure_notation=O=C(NC1=Nc2cc(Cl)ccc2C2=NCCN12)c1cccnc1 experimental_target="Recombinant human PI3Kγ (full length human PI3K p110γ) (Homo sapiens)" readout_kind=pIC50 reported="6.30 to 7.00"
structure_notation=O=C(NC1=Nc2ccc(N3CCOCC3)cc2C2=NCCN12)c1cccnc1 experimental_target="Recombinant human PI3Kγ (full length human PI3K p110γ) (Homo sapiens)" readout_kind=pIC50 reported="< 5.70"

Value of pIC50 reported for the compound CSc1ncccc1C(=O)NC1=Nc2ccccc2C2=NCCN12.Cl is 5.70 to 6.30

The compound listed as Cl.O=C(NC1=Nc2ccc(Cl)cc2C2=NCCN12)c1cccs1 has a reported pIC50 of 6.30 to 7.00

Looking up CC(C)(C)OC(=O)N1CCC(C(=O)NC2=Nc3ccccc3C3=NCCN23)CC1 , I see its pIC50 listed as < 5.70

pIC50 reading for O=C(NC1=Nc2ccccc2C2=NCCN12)c1ccc(-n2cccc2)cc1 : < 5.70

* * *

# experimental.target: Recombinant human PI3Kγ (full length human PI3K p110γ) (Homo sapiens, UniProt P48736)
# Construct: full length human PI3K p110γ fused with a His6-tag at the C-terminus; His6 (C); purchased ALEXIS BIOCHEMICALS #201-055-C010; host or cells: S. frugiperda 9 insect cells
# experiment.summary: Kinase assay of PI3Kγ (solid-phase lipid kinase assay)
# Assay type: biochemical
# condition.description: in vitro PI3K-γ inhibitory activity, class symbols A-D; read-out: in vitro PI3K-gamma
pIC50: −log10 of the molar value.
readout.kind: pIC50

compound="O=C(NC1=Nc2ccccc2C2=NCCN12)c1cc(Cl)cc(Cl)c1 [Example 2-231]" reported="< 5.70"
compound="O=C(NC1=Nc2ccccc2C2=NCCN12)c1ccco1.O=C(O)C(F)(F)F [Example 2-300]" reported="6.30 to 7.00"
compound="O=C(NC1=Nc2ccccc2C2=NCCN12)c1ccc(Cl)nc1 [Example 2-291]" reported="6.30 to 7.00"

Alright, here's another compound for you.
Summary for this compound, CC(=O)NC1=Nc2ccccc2C2=NCCN12 [Example 2-326] : pIC50 is < 5.70
